# Tested on: THRa:RXRa (NR concentration 90 nM, RXRa partner concentration 90 nM)
# ASSAY_TEXT: PBM binding z-score (relative to random genomic background probes); higher = stronger binding; sequences stand for … in GC…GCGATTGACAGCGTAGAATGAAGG
ENDPOINT_NAME: PBM binding z-score

{"RESIDUE_CODES": "TCCTGTAGATCAATAGAGGTTAAGAAAGTGCGCT", "ENDPOINT_NAME": "PBM binding z-score", "OBS_VALUE": 2.29}
{"RESIDUE_CODES": "CGTCCAAGGTCAAGGTCTGTGAAAGAGACTCGAA", "ENDPOINT_NAME": "PBM binding z-score", "OBS_VALUE": 3.83}
{"RESIDUE_CODES": "AGAATGAGGTTATACGTAGATCATGGAAGAAAGT", "ENDPOINT_NAME": "PBM binding z-score", "OBS_VALUE": 2.42}
{"RESIDUE_CODES": "AGAATGAGGGCACGCTGAGTTGATAGCAGAGTAG", "ENDPOINT_NAME": "PBM binding z-score", "OBS_VALUE": 2.53}
{"RESIDUE_CODES": "ATATGTAGGTTAGCTGGGATCATTCAGACTAGGC", "ENDPOINT_NAME": "PBM binding z-score", "OBS_VALUE": 1.95}
{"RESIDUE_CODES": "CTCGATAGGTCGTGCTCAGGTGAGTATACCAAAC", "ENDPOINT_NAME": "PBM binding z-score", "OBS_VALUE": 2.86}
{"RESIDUE_CODES": "CAAACTAGGTCACAGGTCAAAGTCGAGCCAACCA", "ENDPOINT_NAME": "PBM binding z-score", "OBS_VALUE": 3.97}
{"RESIDUE_CODES": "GCAACTGGGGCAAAGCAGGTTACCATAAGGTTGG", "ENDPOINT_NAME": "PBM binding z-score", "OBS_VALUE": 2.78}
{"RESIDUE_CODES": "CCTAGCAGGCCAGGGTCGCTCAAGCATTTCGCTT", "ENDPOINT_NAME": "PBM binding z-score", "OBS_VALUE": 1.23}
{"RESIDUE_CODES": "GCAGACAGGTGATACGCAGGTAACTCAGGGTGGC", "ENDPOINT_NAME": "PBM binding z-score", "OBS_VALUE": 0.561}
{"RESIDUE_CODES": "TCTTGTAGATCACCAGGTTAAGAAAGCTGGCCAA", "ENDPOINT_NAME": "PBM binding z-score", "OBS_VALUE": 1.06}
{"RESIDUE_CODES": "CGTCCAAGGTCATAGGAGATCAGTGAAGACAGAT", "ENDPOINT_NAME": "PBM binding z-score", "OBS_VALUE": 3.82}
{"RESIDUE_CODES": "GATACAGGGTCAGCTAGAGGCCAGAATATGGAAA", "ENDPOINT_NAME": "PBM binding z-score", "OBS_VALUE": 3.04}
{"RESIDUE_CODES": "TCATCTAGGTAAAAGGTGAAAGTCGGTGTGGTAA", "ENDPOINT_NAME": "PBM binding z-score", "OBS_VALUE": 1.99}
{"RESIDUE_CODES": "GATACAGGGTCAGATAGAGGCCAGAGTATGGAAA", "ENDPOINT_NAME": "PBM binding z-score", "OBS_VALUE": 3.16}
{"RESIDUE_CODES": "TCTTGTAGATCTGCAGGTTAAGAAAGCTGGCCAA", "ENDPOINT_NAME": "PBM binding z-score", "OBS_VALUE": 0.319}
{"RESIDUE_CODES": "TTACCAAGGTGATGGTCGTTGATCCCTCTGTAGA", "ENDPOINT_NAME": "PBM binding z-score", "OBS_VALUE": 0.769}
{"RESIDUE_CODES": "GGAGCGAGGGCAAAGTTGATAGCATCTGTCGACG", "ENDPOINT_NAME": "PBM binding z-score", "OBS_VALUE": 0.838}
{"RESIDUE_CODES": "TACCCTAGGTCAGATCGGGCCAGTATACGCTATA", "ENDPOINT_NAME": "PBM binding z-score", "OBS_VALUE": 4.19}
{"RESIDUE_CODES": "ACAGACAGGTGAAGAAGGTAACTCAGGCTATCAT", "ENDPOINT_NAME": "PBM binding z-score", "OBS_VALUE": 1.32}
{"RESIDUE_CODES": "AATACAGGCTCATCGTAGGCCAGAGTACGCACAG", "ENDPOINT_NAME": "PBM binding z-score", "OBS_VALUE": 0.0323}
{"RESIDUE_CODES": "CAAACTCGGTCAAGGTCAAAGTCGGTTTGTGCCA", "ENDPOINT_NAME": "PBM binding z-score", "OBS_VALUE": 4}
{"RESIDUE_CODES": "ATCGAAAGGTCGACGAGGTTAGTATACACCGTTT", "ENDPOINT_NAME": "PBM binding z-score", "OBS_VALUE": 3.37}
{"RESIDUE_CODES": "GCTGCTCGGTCAGGTTGGTCAGCTAACGGGTACG", "ENDPOINT_NAME": "PBM binding z-score", "OBS_VALUE": -0.155}
{"RESIDUE_CODES": "TCTGCTAGATCAACGATGGTCAGCTAATCTGCTA", "ENDPOINT_NAME": "PBM binding z-score", "OBS_VALUE": -0.945}
{"RESIDUE_CODES": "ACAGACAGGTGATGAAGATAACTCAGGCTATCAT", "ENDPOINT_NAME": "PBM binding z-score", "OBS_VALUE": 0.061}
{"RESIDUE_CODES": "CAAACTAGGTCAAAGGTTAAAGTCGAGCCAACCA", "ENDPOINT_NAME": "PBM binding z-score", "OBS_VALUE": 4.29}
{"RESIDUE_CODES": "CCGAGTAGGTGATGGGGCATTCAGGCAACGGTGA", "ENDPOINT_NAME": "PBM binding z-score", "OBS_VALUE": 0.211}
{"RESIDUE_CODES": "TCATATAGGTAATACAGATGAAAGTCGGCATCTA", "ENDPOINT_NAME": "PBM binding z-score", "OBS_VALUE": -0.0206}
{"RESIDUE_CODES": "ACTATTAGTTGACTTAGGGCAATCGATACGACGC", "ENDPOINT_NAME": "PBM binding z-score", "OBS_VALUE": 1.31}
{"RESIDUE_CODES": "CGTCCAAGGTCATAGGACGTCAGTGAAGACAGAT", "ENDPOINT_NAME": "PBM binding z-score", "OBS_VALUE": 3.83}
{"RESIDUE_CODES": "CCGACTGGGGCAAAGATTACCATACTCAGTACGA", "ENDPOINT_NAME": "PBM binding z-score", "OBS_VALUE": -0.407}
{"RESIDUE_CODES": "AGTATGAGGTTATTAAGATCAGGGAATTGCGGTC", "ENDPOINT_NAME": "PBM binding z-score", "OBS_VALUE": 2.27}
{"RESIDUE_CODES": "TCTTGTAGATCAAGCAGGGTAAGAAAGCCTGAGT", "ENDPOINT_NAME": "PBM binding z-score", "OBS_VALUE": 1.2}
{"RESIDUE_CODES": "ACTTACGGGTCAACTAGGTTATAGCACGCGTATA", "ENDPOINT_NAME": "PBM binding z-score", "OBS_VALUE": 3.52}
{"RESIDUE_CODES": "ACAGACAGGTGAGTGAAGGTAAGTCAGCTGGACG", "ENDPOINT_NAME": "PBM binding z-score", "OBS_VALUE": 1.03}
{"RESIDUE_CODES": "CCTAGTTGGACAAGGTCACACACGCTATAGGTAC", "ENDPOINT_NAME": "PBM binding z-score", "OBS_VALUE": 3.93}
{"RESIDUE_CODES": "CACACTAGGTCACCGGAAGGTCAAAGTCCGCATG", "ENDPOINT_NAME": "PBM binding z-score", "OBS_VALUE": 4.79}
{"RESIDUE_CODES": "TCTTGTAGATTAATAGAGGTTAAGAAAGTGCGCT", "ENDPOINT_NAME": "PBM binding z-score", "OBS_VALUE": 1.81}
{"RESIDUE_CODES": "TAGCTTAGGTCAGATCGGGCCAGTATACGCTATA", "ENDPOINT_NAME": "PBM binding z-score", "OBS_VALUE": 4.3}
{"RESIDUE_CODES": "CCTCGGAGGACAACTGGAGGTCAGAGCTGCCAGA", "ENDPOINT_NAME": "PBM binding z-score", "OBS_VALUE": 2.7}
{"RESIDUE_CODES": "ATATGTAGGTTACATCCGGGTAATTCAGGCTATG", "ENDPOINT_NAME": "PBM binding z-score", "OBS_VALUE": 2.3}
{"RESIDUE_CODES": "TCAGACAGGTGAAGGGAACTCAGGTACGCAGTCG", "ENDPOINT_NAME": "PBM binding z-score", "OBS_VALUE": 0.891}
{"RESIDUE_CODES": "GTACCAAGGTGAATATGTCGTTGATGAGTAGGCG", "ENDPOINT_NAME": "PBM binding z-score", "OBS_VALUE": 1.34}
{"RESIDUE_CODES": "ATCGAAGGGTCGTGAGGTGAGTATACAGAAAGGC", "ENDPOINT_NAME": "PBM binding z-score", "OBS_VALUE": 2.84}
{"RESIDUE_CODES": "CCTATTAATTGACCATAAGGGCAACCGAAGCTCG", "ENDPOINT_NAME": "PBM binding z-score", "OBS_VALUE": 1.63}
{"RESIDUE_CODES": "CAGCCTAGGTCCGGGCCAGTATAGGAGGAACGTT", "ENDPOINT_NAME": "PBM binding z-score", "OBS_VALUE": -0.819}
{"RESIDUE_CODES": "GATACATGGTCAGCTAGAGGCCAGAGTATGGAAA", "ENDPOINT_NAME": "PBM binding z-score", "OBS_VALUE": -0.168}
{"RESIDUE_CODES": "CGTCCAAGGTCAGTAGGTCAGTGAAAGCGACGTG", "ENDPOINT_NAME": "PBM binding z-score", "OBS_VALUE": 3.35}
{"RESIDUE_CODES": "ACAGACAAGTGATGAAGGTAACTCAGGCTATCAT", "ENDPOINT_NAME": "PBM binding z-score", "OBS_VALUE": 0.639}
{"RESIDUE_CODES": "CTCGAAAGGTCGCTTGAGGTGAGTATACGGATAA", "ENDPOINT_NAME": "PBM binding z-score", "OBS_VALUE": 5.16}

Origin of the recorded values: the supplement of paper PMC6555819
